target: T1, soluble human recombinant CD4 expressed in baculovirus (human, UniProt P01730 26-396, limits assumed); test: SPR (BIAcore), CD4 immobilised
T1 construct: Coated on plates for the ELISA and covalently immobilised on the sensor for BIAcore; Only called soluble; also called soluble CD4; CD4 expressed in the baculovirus
parameter: koff

INSERT INTO measurements (binder, result) VALUES
  ('mutant Fab W52-H of the 13B8.2 antibody (Fab, V domains shown, Chimeric Fab with human CH1-γ1 and Cκ; baculovirus/Sf9) VH: QVQLKQSGPGLVQPSQSLSITCTVSGFSLTTFGVHWVRQSPGKGLEWLGVIARSGITDYNVPFMSRLSITKDNSKSQVFFKLNSLQPDDTAIYYCAKNDPGTGFAYWGQGTLVTVSA VL: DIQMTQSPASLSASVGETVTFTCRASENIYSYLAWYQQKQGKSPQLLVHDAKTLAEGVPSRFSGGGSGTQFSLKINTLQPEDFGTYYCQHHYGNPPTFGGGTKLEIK', '0.000859 s⁻¹'),
  ('mutant Fab F100K-H of the 13B8.2 antibody (Fab, V domains shown, Chimeric Fab with human CH1-γ1 and Cκ; baculovirus/Sf9) VH: QVQLKQSGPGLVQPSQSLSITCTVSGFSLTTFGVHWVRQSPGKGLEWLGVIWRSGITDYNVPFMSRLSITKDNSKSQVFFKLNSLQPDDTAIYYCAKNDPGTGAAYWGQGTLVTVSA VL: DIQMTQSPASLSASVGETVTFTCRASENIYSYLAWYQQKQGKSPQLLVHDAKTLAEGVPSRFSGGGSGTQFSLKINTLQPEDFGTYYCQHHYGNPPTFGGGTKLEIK', '0.000475 s⁻¹'),
  ('mutant Fab W36-H of the 13B8.2 antibody (Fab, V domains shown, Chimeric Fab with human CH1-γ1 and Cκ; baculovirus/Sf9) VH: QVQLKQSGPGLVQPSQSLSITCTVSGFSLTTFGVHAVRQSPGKGLEWLGVIWRSGITDYNVPFMSRLSITKDNSKSQVFFKLNSLQPDDTAIYYCAKNDPGTGFAYWGQGTLVTVSA VL: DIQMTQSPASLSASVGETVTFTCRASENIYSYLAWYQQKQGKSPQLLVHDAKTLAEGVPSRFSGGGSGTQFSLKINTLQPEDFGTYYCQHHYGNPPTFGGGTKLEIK', '0.000271 s⁻¹');
